Quick record: GI50, HCT-15.
Note: unit µM is implicit; provide only the numeric part.

Under HCT-15: GI50 value of O=C(CSc1nc2ccc(I)cc2c(=O)n1Cc1ccccc1)NN1C(=O)CCC1=O ? 22.5

Under HCT-15: GI50 value of O=C1CN2C(Cl)(Cl)C2(c2ccccc2)c2cc(Cl)ccc2N1CC1CC1 (stereo not given) ? 19.3

Under HCT-15: GI50 value of CCN1CCC(O)(/C=C/c2ccc(C)cc2)C(C(=O)/C=C/c2ccc(C)cc2)C1 (stereo not given) ? 4.06

* * *

Test system: HCT-116
testName: NCI tumour cell line growth inhibition, 48 h
Calls of active or inactive are those of the source. No stated cut-off is given here; in the data, active = GI50 up to about 1.1 µM and inactive = higher.
Field: GI50. Provide a value for each of the compounds that follow.

Which GI50 value belongs to Nc1n[nH]c(N)n1 ? 5980 µM (inactive)

Which GI50 value belongs to COC(=O)C(Cc1nc2ccc(Cl)cc2nc1O)C(=O)C(=O)Nc1cc(C)ccc1C (stereo unspecified) ? > 100 µM (inactive)

Which GI50 value belongs to Cc1nnc(Nc2ccc(Cl)cc2)o1 ? > 10 µM (inactive)

Which GI50 value belongs to CCCCN(CCCC)CC(C(=O)Nc1ccccc1)/C(C)=N\NC(=O)c1ccncc1 (stereo unspecified) ? 92 µM (inactive)

Which GI50 value belongs to COC(=O)C1CC2C=CC1N(C(=O)OCc1ccccc1)C2 (stereo unspecified) ? > 100 µM (inactive)

Which GI50 value belongs to Cc1cn(C2CC(n3cc(Cn4cc(F)c(=O)[nH]c4=O)nn3)C(CO)O2)c(=O)[nH]c1=O (stereo unspecified) ? > 100 µM (inactive)

Which GI50 value belongs to O=C(/C=C\c1ccccc1)N1CCc2ccccc2C1 ? 34.6 µM (inactive)

Which GI50 value belongs to CN(C)c1ccc(/C=C2\C[N+](C)(C)C/C(=C\c3ccc(N(C)C)cc3)C2=O)cc1 ? 8.93 µM (inactive)

Which GI50 value belongs to N#C[C@H](C(=O)c1ccccc1F)c1nc2ccccc2[nH]1 ? > 100 µM (inactive)

Which GI50 value belongs to CC(=O)NC(CCCCNC(=O)N(C)N=O)C(=O)NCc1ccccc1 (stereo unspecified) ? > 100 µM (inactive)

Which GI50 value belongs to Cc1cc(S(=O)(=O)/N=C2\NCCN2Cc2ccccc2)c(S)cc1Cl ? > 100 µM (inactive)

Which GI50 value belongs to CCOC(=O)c1nc2ccccc2nc1Nc1ccc(OC)cc1 ? 42.3 µM (inactive)

Which GI50 value belongs to COC1=CC(=O)c2ccc(C(C)C)cc2C1(C)C1=NC(C)(C)CO1 (stereo unspecified) ? > 100 µM (inactive)

Which GI50 value belongs to CCOC(=O)CCc1c(C)nc2c(C)c3c([nH]c4ccc(Cl)cc43)c(C)c2c1O ? 10.9 µM (inactive)

Which GI50 value belongs to COc1cc2[nH]c3c(c2cc1OC)CCN[C@@]31CC[C@@]2(CC3c4c(cc(OC)c(O)c42)CCN3C)C[C@@H]1OC (stereo partly specified) ? 28.6 µM (inactive)

Which GI50 value belongs to CC(=O)N1c2ccccc2C23CCN4CC5=CCOC(O)C(C5CC42)C13 (stereo unspecified) ? > 100 µM (inactive)

Which GI50 value belongs to CCOC(=O)c1cc2c(cn1)[nH]c1cccc(N)c12 ? > 100 µM (inactive)

Which GI50 value belongs to Cc1ccc2c(c1)Sc1ccc(/N=N/N(C)C)cc1N2C ? > 100 µM (inactive)

Which GI50 value belongs to CC1=NN(C(=O)CC(=O)N(C(=O)c2ccccc2)c2ccc(Cl)cc2)C(=O)C1/N=N/c1ccc([N+](=O)[O-])cc1 (stereo unspecified) ? > 10 µM (inactive)

Which GI50 value belongs to CC1NOC(=O)C1/N=N/c1cccc(Cl)c1 (stereo unspecified) ? 31.7 µM (inactive)

Which GI50 value belongs to O=C(N/N=C/C=C/c1ccccc1)[C@H](O)[C@@H](O)C(=O)N/N=C/C=C/c1ccccc1 ? > 100 µM (inactive)
